- run-description: NCI Yeast Anticancer Drug Screen. Data for the bub3 strain (AID 167)
- reported-conditions: S. cerevisiae bub3 mutant strain, at 50.0 µM
Compounds without any hit were thinned out: in the full panel of roughly 79,000, 15% have a hit. Activity calls are given as the source filed them. No stated cut-off is given here; in the data, active means growth inhibition above about 70%; inactive means the rest.
Could you please pick one outcome from this set? t for active, f for inactive

Input line: Recorded call for Nc1nnc(CCC(=O)Nc2ccccc2Cl)o1 ?
Output line: t

Input line: Recorded call for CC(C)(C)C1=CC(N2CCCCC2)(C(C)(C)C)C=C(C(C)(C)C)C1=O ?
Output line: t

Input line: Recorded call for O=NNc1ccc(-c2ccc([N+](=O)[O-])cc2)cn1 ?
Output line: f

Input line: Recorded call for Cc1ccc([Si](O)(c2ccc(C)cc2)c2ccc(C)cc2)cc1 ?
Output line: t

Input line: Recorded call for CCCC(CCC)NCCOC(=O)C(CC)c1ccccc1 (stereo unspecified) ?
Output line: f

Input line: Recorded call for COc1ccc2c(c1)C(Br)CCC(Br)C2=O (stereo unspecified) ?
Output line: t

###

- run-description: NCI Yeast Anticancer Drug Screen. Data for the rad50 strain (AID 155);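 further: 0% = growth of vehicle-only cultures of the same strain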
- reported-conditions: S. cerevisiae rad50 strain growth inhibition; at 50.0 µM (retest, dose inferred, filed as 5.0)
The panel holds about 79,000 compounds, 15% with a hit somewhere; the sample as a whole holds those more often. Activity calls are given as the source filed them. No stated cut-off is given here; in the data, active means growth inhibition above about 70%; inactive means the rest.
Could you please pick one outcome from this set? YES (active), NO (inactive)

Input line: Recorded call for CCCCCCCCCCCCOCC[N+](CCO)(CCO)Cc1ccccc1 ?
Output line: YES

Input line: Recorded call for O=C(N/C(=C\c1cccc([N+](=O)[O-])c1)c1nc2ccccc2s1)c1ccccc1 ?
Output line: YES

Input line: Recorded call for O=c1c(-c2ccccc2)c(-c2ccccc2)c1=O ?
Output line: YES

Input line: Recorded call for O=C(OC1C=C=CS(=O)(=O)CC#C/C=C\1)c1cnc2ccccc2n1 (stereo unspecified) ?
Output line: YES

Input line: Recorded call for Cc1cc(=O)[nH]c2cc3oc4ccccc4c3cc12 ?
Output line: YES

Input line: Recorded call for CNC(=S)N/N=C(\C=N\NC(=S)NC)c1ccccc1 ?
Output line: NO

Input line: Recorded call for O=C(/N=C1\N=Nc2nc(C(C(=O)c3cccs3)c3nc4n(c3O)/C(=N/C(=O)Nc3ccc(Cl)cc3)N=N4)c(O)n21)Nc1ccc(Cl)cc1 (stereo unspecified) ?
Output line: NO

Input line: Recorded call for O=[N+]([O-])c1ccc(CO)o1 ?
Output line: NO

Input line: Recorded call for CCCCCCCCCCCCCC(=O)OCCCC1CCCO1 (stereo unspecified) ?
Output line: NO

Input line: Recorded call for CCCCCCCCCCCC(=O)c1c(O)c2ccccc2oc1=O ?
Output line: NO

Input line: Recorded call for CN(C)CCCNc1c2ccccc2nc2ccc([N+](=O)[O-])cc12 ?
Output line: YES

###

For each of the compounds below, state its growth inhibition.
- run-description: NCI Yeast Anticancer Drug Screen. Data for the mec2-1 strain (AID 157)
- reported-conditions: S. cerevisiae mec2-1 strain, at 50.0 µM, hits give high values
The panel holds about 79,000 compounds, 15% with a hit somewhere; the sample as a whole holds those more often.
Report as a plain number; the unit % is understood.

compound CCOC(=O)/C=C(\C)c1ccc([N+](=O)[O-])cc1 , growth inhibition observed: -17.3

compound CCc1ccccc1SC(C)=O , growth inhibition observed: 62

compound COc1ccc(/C=N/N=c2\[nH][nH]/c(=N\N=C\c3ccc(OC)c4ccccc34)c3ccccc23)c2ccccc12 , growth inhibition observed: 47.5

compound S=c1sc2ccccc2n1C=Nc1ccccc1 , growth inhibition observed: 98.8

compound O=C1/C(=C\c2ccc([N+](=O)[O-])o2)Oc2cc(O)ccc21 , growth inhibition observed: 91.8

compound O=C1/C(=C/c2cccc([N+](=O)[O-])c2)Sc2scc(-c3ccc([N+](=O)[O-])cc3)[n+]21 , growth inhibition observed: 62

compound CCC(c1ccc(OC)cc1)C(CC)c1ccc(O)c(CN(C)C)c1 (centres undefined) , growth inhibition observed: 27.1

compound COc1ccc(C(=O)c2cc(Br)ccc2O)cc1 , growth inhibition observed: 71.9

compound COc1nc2nc(Cl)cc(C)c2c2ccccc12 (tested in a mixture with another compound) , growth inhibition observed: 65.2

compound Cc1cc(-c2ccc(N=Nc3cc(S(=O)(=O)O)c4ccccc4c3N)c(C)c2)ccc1N=Nc1cc(S(=O)(=O)O)c2ccccc2c1N , growth inhibition observed: 52.1

compound O=C1CCC(c2ccccc2)=NN1c1nc2ccccc2s1 , growth inhibition observed: 99.2

compound c1ccc(C(c2ccccc2)c2ccc3ccccc3n2)cc1 , growth inhibition observed: 40.8

compound OC(c1ccccc1)c1cccc(Br)c1 (centres undefined) , growth inhibition observed: 59.8

compound CCCCCCCCCCCCCC1OC(=O)C(C)=C1C(=O)O (centres undefined) , growth inhibition observed: 26.9

compound O=C(Cl)C(c1ccccc1)(c1ccccc1)c1ccccc1 , growth inhibition observed: 95.1

compound O=CC1(c2ccc(Cl)cc2)NC(=O)NC1=O (centres undefined) , growth inhibition observed: -1.7

compound N=C(N)c1ccc(Nc2ccc(C(=N)N)cc2)cc1 , growth inhibition observed: 86.3

compound COc1ccc2c(c1)C(Br)CCC(Br)C2=O (centres undefined) , growth inhibition observed: 56.2

compound Clc1cc(Cl)c(OCCOCCI)c(Cl)c1 , growth inhibition observed: 9.15

compound COC(=O)c1ccc(Cl)c(Cl)c1 , growth inhibition observed: 6.75

compound N#CC(C(=O)C(=O)NC1C2CC3CC(C2)CC1C3)c1c(Cl)cccc1Cl (centres undefined) , growth inhibition observed: 19.8

compound O=C(C=P(c1ccccc1)(c1ccccc1)c1ccccc1)c1ccc(Cl)cc1 , growth inhibition observed: 99.2

compound O=C(/C(=C\c1ccccc1)c1ccccc1)c1ccc(Br)cc1 , growth inhibition observed: -16.2

compound CN(C)CC[N+](C)(C)Cc1ccc(C[N+](C)(C)CC[N+](C)(C)Cc2ccc(CCl)cc2)cc1 , growth inhibition observed: 98

compound O=C(Oc1c(I)ccccc1=O)c1ccc([N+](=O)[O-])cc1 , growth inhibition observed: 99.3

compound O=C1OC(C2OC(=O)C(=O)C2C(=O)c2ccc([N+](=O)[O-])cc2)C(C(=O)c2ccc([N+](=O)[O-])cc2)C1=O (centres undefined) , growth inhibition observed: 59.1

compound C[C@]12CC[C@H](O)CC1=CC[C@@H]1C2CC[C@]2(C)C(=O)N(N)C(=O)CC12 (some centres undefined) , growth inhibition observed: 88.3

compound CN(C)C(=S)Oc1ccc(C(C)(C)C)cc1 , growth inhibition observed: -14.4

compound CCCCCCCCCCOC(=O)c1ccccn1 , growth inhibition observed: 42.7

compound CCC[CH2][Sn]([CH2]CCC)([O]C(=O)C(OC)c1ccccc1)[O]C(=O)C(OC)c1ccccc1 (centres undefined) , growth inhibition observed: 88.3

compound CC(C)O[C@H]1N(C2CC(N=[N+]=[N-])C(CO)O2)C(=O)NC(=O)[C@]1(C)Br (some centres undefined) , growth inhibition observed: 91.2

compound NC(=O)NOC(=O)c1ccccc1 , growth inhibition observed: 87.5

compound COc1ccc2nccc(C(=O)CBr)c2c1 , growth inhibition observed: 93

compound COc1cc(/C=C2\S/C(=N/Nc3nc(-c4ccc(Br)cc4)cs3)NC2=O)cc(OC)c1OC , growth inhibition observed: 76.2

compound CCC(C)c1ccc(O)c(C(C)c2ccccc2)c1 (centres undefined) , growth inhibition observed: 92.2

compound CCC(=O)NC1=CCC(C(C)(C)C)CC1 (centres undefined) , growth inhibition observed: -5.55

compound NS(=O)(=O)c1ccc(NC(=S)/N=C/c2c(O)c3ccccc3[nH]c2=O)cc1 , growth inhibition observed: -0.65

compound C=CCN1CCC(OC(=O)C(O)(/C=C\CC)C2CCCC2)CC1 (centres undefined) , growth inhibition observed: 48.9

compound Cc1c2cnccc2c(C)c2c1c1ccccc1n2CCOC(=O)c1ccccc1 , growth inhibition observed: 87.8

compound Cc1cc(OC(=O)CCl)ccc1C(C)(C)C , growth inhibition observed: 40.5

compound COC1/C=C\OC2(C)Oc3c(C)c(O)c4c(O)c(c5[nH]c(-c6ccccc6)nc5c4c3C2=O)NC(=O)/C(C)=C\C=C\C(C)C(O)C(C)C(O)C(C)C(OC(C)=O)C1C (centres undefined) , growth inhibition observed: 91.1

compound OC(CC(O)(C(F)(F)Cl)C(F)(F)Cl)c1ccccc1 (centres undefined) , growth inhibition observed: 90.7

compound Cc1cc(-c2ccc(O)c(C)c2)ccc1O , growth inhibition observed: 57.4

compound Fc1ccccc1CN1COc2c(cc(Cl)c3cccnc23)C1 , growth inhibition observed: 99.4
